# subject-of-test: Cholinesterase (Homo sapiens)
# Sequence (P06276 whole entry): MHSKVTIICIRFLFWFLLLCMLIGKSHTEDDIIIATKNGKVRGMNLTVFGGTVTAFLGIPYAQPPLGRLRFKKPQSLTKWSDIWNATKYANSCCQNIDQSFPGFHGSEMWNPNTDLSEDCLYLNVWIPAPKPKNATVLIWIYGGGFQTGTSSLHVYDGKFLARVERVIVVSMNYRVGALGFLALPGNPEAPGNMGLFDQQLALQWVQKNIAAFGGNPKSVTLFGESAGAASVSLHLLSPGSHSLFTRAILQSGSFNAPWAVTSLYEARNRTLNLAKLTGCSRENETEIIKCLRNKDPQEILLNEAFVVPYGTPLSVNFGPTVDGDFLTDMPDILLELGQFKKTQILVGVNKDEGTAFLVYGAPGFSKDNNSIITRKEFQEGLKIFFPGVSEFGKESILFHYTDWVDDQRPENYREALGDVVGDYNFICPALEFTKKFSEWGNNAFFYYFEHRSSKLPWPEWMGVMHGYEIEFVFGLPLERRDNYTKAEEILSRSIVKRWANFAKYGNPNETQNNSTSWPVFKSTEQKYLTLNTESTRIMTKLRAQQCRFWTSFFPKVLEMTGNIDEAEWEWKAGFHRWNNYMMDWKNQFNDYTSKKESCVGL
# protocol-summary: Inhibition of human serum BuChE using ATCI and BTCI as substrate preincubated for 5 mins followed by substrate addition and measured after 3 mins by DTNB-reagent based Ellman's method
outcome-measure: pIC50
Worth noting: pIC50 values are minus log10 of concentrations stated in mol/L.

Some entries whose results are on file:
Data request: Assign pIC50 to the following record: COc1ccc2c(c1)c(C=O)cn2CCCCCCCCCCCCN(C)Cc1ccc(O)cc1
Data returned: 6.59

Data request: Assign pIC50 to the following record: COc1cccc(CN(C)CCCCCCCCCCCCn2cc(C=O)c3cc(OC)ccc32)c1
Data returned: 5.26

Others:
Data request: Assign pIC50 to the following record: COc1ccc2c(c1)c(C=O)cn2CCCCCCCCN(C)Cc1ccc(O)cc1
Data returned: 6.31

Data request: Assign pIC50 to the following record: COc1ccc2c(c1)c(C=O)cn2CCCCCCCN(C)Cc1ccc(O)cc1
Data returned: 6.05
